Ki, Xanthine oxidase from bovine milk (Bos taurus), per-entry values.
metric: Ki (µM)

Here are 3 compounds together with their reported answers.
CC1=CC(=O)CC(C)(C)C1(O)C=CC(C)OC1OC(CO)C(O)C(O)C1O [Compound 3, (6S,9R)-Roseoside]	767
CC1OC(Oc2cc(O)c3c(=O)c(OC4OC(CO)C(O)C(O)C4OC4OC(C)C(O)C(O)C4O)c(-c4ccc(O)cc4)oc3c2)C(O)C(O)C1O (centres unmarked) [Compound 4b]	50
CC1OC(Oc2cc(O)c3c(=O)c(OC4OC(CO)C(O)C(O)C4OC4OC(C)C(O)C(O)C4O)c(-c4ccc(O)cc4)oc3c2)C(O)C(O)C1O (centres unmarked) [Compound 4a]	651

A: CC1OC(Oc2cc(O)c3c(=O)c(OC4OC(CO)C(O)C(O)C4O)c(-c4ccc(O)cc4)oc3c2)C(O)C(O)C1O (centres unmarked)
B: CC1OC(Oc2cc(O)c3c(=O)c(OC4OCC(O)C(O)C4O)c(-c4ccc(O)cc4)oc3c2)C(O)C(O)C1O (centres unmarked)
Of A and B , which one carries the higher reported Ki? Let me know the label of the one you choose.
A

---

assayedSystem: Xanthine oxidase from bovine milk (Bos taurus, UniProt P80457)
Construct: Xanthine oxidase from bovine milk and allopurinol were purchased from Sigma-Aldrich; purchased Sigma-Aldrich (St Louis MO, USA); host or cells: bovine milk (natural source)
Sequence (P80457 whole entry): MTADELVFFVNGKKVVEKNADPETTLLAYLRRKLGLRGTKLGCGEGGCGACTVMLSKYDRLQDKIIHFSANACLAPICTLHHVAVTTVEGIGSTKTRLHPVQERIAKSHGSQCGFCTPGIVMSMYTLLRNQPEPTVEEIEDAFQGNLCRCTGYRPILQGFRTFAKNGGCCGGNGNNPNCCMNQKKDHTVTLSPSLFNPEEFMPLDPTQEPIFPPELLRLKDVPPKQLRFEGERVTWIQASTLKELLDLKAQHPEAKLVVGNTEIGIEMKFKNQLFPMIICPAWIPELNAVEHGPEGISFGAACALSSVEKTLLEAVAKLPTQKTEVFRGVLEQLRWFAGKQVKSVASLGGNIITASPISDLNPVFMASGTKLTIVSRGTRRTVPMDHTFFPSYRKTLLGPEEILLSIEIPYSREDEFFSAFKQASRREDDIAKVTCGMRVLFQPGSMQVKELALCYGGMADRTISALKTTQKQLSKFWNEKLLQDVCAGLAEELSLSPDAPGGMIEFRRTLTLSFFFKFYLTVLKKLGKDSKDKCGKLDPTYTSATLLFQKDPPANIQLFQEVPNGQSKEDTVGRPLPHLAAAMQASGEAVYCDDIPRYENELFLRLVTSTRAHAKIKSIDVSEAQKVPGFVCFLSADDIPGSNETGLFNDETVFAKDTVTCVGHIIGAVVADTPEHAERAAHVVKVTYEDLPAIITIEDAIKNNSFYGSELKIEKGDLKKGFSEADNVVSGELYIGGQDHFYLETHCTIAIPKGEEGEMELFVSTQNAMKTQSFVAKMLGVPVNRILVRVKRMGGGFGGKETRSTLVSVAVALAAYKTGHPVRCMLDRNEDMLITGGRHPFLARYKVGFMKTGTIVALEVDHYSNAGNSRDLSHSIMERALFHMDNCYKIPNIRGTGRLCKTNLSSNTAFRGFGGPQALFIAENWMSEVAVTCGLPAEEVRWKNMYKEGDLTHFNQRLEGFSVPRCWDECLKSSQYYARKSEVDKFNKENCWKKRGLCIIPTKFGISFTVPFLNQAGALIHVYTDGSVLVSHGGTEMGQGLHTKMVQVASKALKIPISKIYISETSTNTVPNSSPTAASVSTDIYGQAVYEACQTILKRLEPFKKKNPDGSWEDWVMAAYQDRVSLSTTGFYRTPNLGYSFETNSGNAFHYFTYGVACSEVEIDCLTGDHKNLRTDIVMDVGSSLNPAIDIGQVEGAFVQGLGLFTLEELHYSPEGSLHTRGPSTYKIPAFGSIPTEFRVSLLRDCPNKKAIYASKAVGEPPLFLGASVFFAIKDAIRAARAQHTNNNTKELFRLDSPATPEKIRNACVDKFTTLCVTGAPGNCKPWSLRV
testSummary: Assessment of XO activity (formation of uric acid from xanthine, 295 nm)
Format: biochemical
experimentalParameters: pure compounds; kinetic analysis
metric: Inhibition type

CC1OC(Oc2cc(O)c3c(=O)c(OC4OC(CO)C(O)C(O)C4O)c(-c4ccc(O)cc4)oc3c2)C(O)C(O)C1O (stereo not shown) [Compound 10]	Non competitive
CC1OC(Oc2cc(O)c3c(=O)c(OC4OCC(O)C(O)C4O)c(-c4ccc(O)cc4)oc3c2)C(O)C(O)C1O (stereo not shown)	Non competitive
CC1OC(Oc2cc(O)c3c(=O)c(OC4OC(CO)C(O)C(O)C4O)c(-c4ccc(O)cc4)oc3c2)C(O)C(O)C1O (stereo not shown) [Compound 5]	Non competitive

---

assayedSystem: Xanthine oxidase from bovine milk (Bos taurus, UniProt P80457)
metric: IC50 (µM)
Please give a number only; it is taken to be in µM.

Test system Xanthine oxidase from bovine milk (Bos taurus, UniProt P80457); read-out IC50; what value for CC1OC(Oc2cc(O)c3c(=O)c(OC4OC(CO)C(O)C(O)C4O)c(-c4ccc(O)cc4)oc3c2)C(O)C(O)C1O (stereo not shown) ?
70.6

---

assayedSystem: Xanthine oxidase from bovine milk (Bos taurus, UniProt P80457)
Construct: Xanthine oxidase from bovine milk and allopurinol were purchased from Sigma-Aldrich; purchased Sigma-Aldrich (St Louis MO, USA); host or cells: bovine milk (natural source)
testSummary: Assessment of XO activity (formation of uric acid from xanthine, 295 nm)
Format: biochemical
experimentalParameters: pure compounds; kinetic analysis
metric: Inhibition type

CC1OC(Oc2cc(O)c3c(=O)c(OC4OC(CO)C(O)C(O)C4OC4OC(C)C(O)C(O)C4O)c(-c4ccc(O)cc4)oc3c2)C(O)C(O)C1O (stereo not drawn)	Non competitive
CC1=CC(=O)CC(C)(C)C1(O)C=CC(C)OC1OC(CO)C(O)C(O)C1O [Compound 3, (6S,9R)-Roseoside]	Non competitive
CC1OC(Oc2cc(O)c3c(=O)c(OC4OC(CO)C(O)C(O)C4OC4OC(C)C(O)C(O)C4O)c(-c4ccc(O)c(O)c4)oc3c2)C(O)C(O)C1O (stereo not drawn)	Non competitive
